- assayOverview: GPLM t1/2 (microsomal stability)
- Type: in vitro ADME
- testSettings: guinea pig, liver microsomes
measurementName: half-life (min)
Numbers only; they are read as min.

The recorded half-life for entry C[C@]12CC[C@H](O)CC1=CC[C@@H]1[C@@H]2CC[C@]2(C)C(c3cccnc3)=CC[C@@H]12 equals 7.7

###

- assayOverview: HLM t1/2 (microsomal stability)
- Assay type: in vitro ADME
- testSettings: human, liver microsomes
measurementName: half-life (h)
Numbers only; they are read as h.

The recorded half-life for entry C[C@]12CC[C@H](O)CC1=CC[C@@H]1[C@@H]2CC[C@]2(C)C(c3cccnc3)=CC[C@@H]12 equals 1
